tested on: Recombinant human his-tagged IGF 1R extracellular domain protein (human) (UniProt P08069)
protocol notes: SPR, captured antibody, pH 7.4
Each item that follows carries a reported Kd.
Give the value, in units of nM, as a plain number.

binder	Kd, nM
VRDN-03131 (antibody, V domains shown) VH: EVQLVESGGGVVQPGRSLRLSCAASGFTFSSYSMHWVRQAPGKGLEWVAIIWFDGSEKYYVDSVKSRFTISRDNSKNTLYLQMNSLRAEDTAVYYCARELGRRYFDIWGQGTLVTVSS VL: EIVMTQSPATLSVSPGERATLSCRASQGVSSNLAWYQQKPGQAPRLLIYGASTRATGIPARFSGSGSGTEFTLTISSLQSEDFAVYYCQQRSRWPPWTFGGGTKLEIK	16.2
VRDN-03051 (antibody, V domains shown) VH: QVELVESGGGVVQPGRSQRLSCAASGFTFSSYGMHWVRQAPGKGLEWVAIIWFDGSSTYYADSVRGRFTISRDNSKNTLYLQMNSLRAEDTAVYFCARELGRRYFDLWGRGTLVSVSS VL: EIVLTQSPATLSLSPGERATLSCRASQSVSSYLAWYQQKPGQAPRLLIYDAHKRATGIPARFSGSGSGTDFTLTISSLEPEDFAVYYCQQRSKWPPWTFGQGTKVESK	1.86
VRDN-03100 (second entry of that label; VH and VL pair SEQ ID NO: 223) (antibody, V domains shown) VH: QVQLVESGGGVVQPGRSLRLSCAASGFTFSSYSMHWVRQAPGKGLEWVAIIWFDGSSKYYPGSVKGRFTISRDNSKNTLYLQMNSLRAEDTAVYYCARELGRRYFDIWGRGTLVTVSS VL: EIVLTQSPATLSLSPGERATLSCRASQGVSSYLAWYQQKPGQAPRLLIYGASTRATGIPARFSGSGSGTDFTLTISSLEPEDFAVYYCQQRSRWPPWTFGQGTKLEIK	5.52
VRDN-03055 (antibody, V domains shown) VH: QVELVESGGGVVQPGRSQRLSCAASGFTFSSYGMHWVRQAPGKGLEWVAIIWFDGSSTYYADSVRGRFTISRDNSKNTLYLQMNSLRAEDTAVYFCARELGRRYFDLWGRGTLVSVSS VL: EIVLTQSPATLSLSPGERATLSCRASQSVSSYLAWYQQKPGQAPRLLIYDASKRAHGIPARFSGSGSGTDFTLTISSLEPEDFAVYYCQQRSKWPPWTFGQGTKVESK	1.92
VRDN-03132 (antibody, V domains shown) VH: EVQLVESGGGVVQPGRSLRLSCAASGFTFSSYSMHWVRQAPGKGLEWVAVIWYDGSSKYYADSVKGRFTISRDNSKNTLYLQMNSLRAEDTAVYYCARELGRRYFDIWGQGTLVTVSS VL: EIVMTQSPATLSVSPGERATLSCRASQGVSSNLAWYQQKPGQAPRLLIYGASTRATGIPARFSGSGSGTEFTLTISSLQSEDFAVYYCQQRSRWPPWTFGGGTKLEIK	10.1
VRDN-03117 (antibody, V domains shown) VH: EVQLVESGGGVVQPGRSLRLSCAASGFTFSSYSMHWVRQAPGKGLEWVAIIWFDGSNKYYADSVKSRFTISRDNSKNTLYLQMNSLRAEDTAVYYCARELGRRYFDIWGQGTLVTVSS VL: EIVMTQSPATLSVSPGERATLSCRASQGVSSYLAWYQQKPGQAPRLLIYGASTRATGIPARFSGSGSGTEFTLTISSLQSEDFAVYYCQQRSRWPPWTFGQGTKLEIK	8.1
VRDN-03046 (antibody, V domains shown) VH: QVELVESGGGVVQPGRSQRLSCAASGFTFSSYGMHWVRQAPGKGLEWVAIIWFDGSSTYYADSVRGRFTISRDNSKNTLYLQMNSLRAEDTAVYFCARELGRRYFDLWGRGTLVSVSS VL: EIVLTQSPATLSLSPGERATLSCRASQSVSSHLAWYQQKPGQAPRLLIYDASKRATGIPARFSGSGSGTDFTLTISSLEPEDFAVYYCQQRSKWPPWTFGQGTKVESK	1.58
VRDN-03039 (antibody, V domains shown) VH: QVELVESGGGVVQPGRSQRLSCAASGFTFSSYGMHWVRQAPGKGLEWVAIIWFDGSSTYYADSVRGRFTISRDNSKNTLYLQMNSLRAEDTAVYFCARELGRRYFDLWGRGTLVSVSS VL: EIVLTQSPATLSLSPGERATLSCRHSQSVSSYLAWYQQKPGQAPRLLIYDASKRATGIPARFSGSGSGTDFTLTISSLEPEDFAVYYCQQRSKWPPWTFGQGTKVESK	11.3

Qu. // query Kd value for entry VRDN-03109 (antibody, V domains shown) VH: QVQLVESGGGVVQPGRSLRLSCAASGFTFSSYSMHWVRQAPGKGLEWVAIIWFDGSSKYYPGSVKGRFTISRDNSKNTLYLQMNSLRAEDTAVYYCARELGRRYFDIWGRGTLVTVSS VL: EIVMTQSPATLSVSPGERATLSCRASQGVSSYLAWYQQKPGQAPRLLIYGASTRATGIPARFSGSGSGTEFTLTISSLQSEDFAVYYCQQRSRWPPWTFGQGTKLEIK
Ans. 6.74

Qu. Now consider VRDN-03101 (antibody, V domains shown) VH: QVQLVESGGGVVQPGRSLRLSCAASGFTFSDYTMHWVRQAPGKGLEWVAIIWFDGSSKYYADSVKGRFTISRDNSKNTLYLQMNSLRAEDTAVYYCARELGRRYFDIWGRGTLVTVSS VL: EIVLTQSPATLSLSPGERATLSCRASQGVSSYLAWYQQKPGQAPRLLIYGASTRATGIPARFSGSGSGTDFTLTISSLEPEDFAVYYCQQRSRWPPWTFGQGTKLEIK .
Ans. 0.785
